The binders listed here are annotated with their ELISA_avg.
tested.target: T1, recombinant human CD123-Fc (human, UniProt P26951 19-305)
T1 construct: not shown: Fc part of CD123-Fc
T1 sequence: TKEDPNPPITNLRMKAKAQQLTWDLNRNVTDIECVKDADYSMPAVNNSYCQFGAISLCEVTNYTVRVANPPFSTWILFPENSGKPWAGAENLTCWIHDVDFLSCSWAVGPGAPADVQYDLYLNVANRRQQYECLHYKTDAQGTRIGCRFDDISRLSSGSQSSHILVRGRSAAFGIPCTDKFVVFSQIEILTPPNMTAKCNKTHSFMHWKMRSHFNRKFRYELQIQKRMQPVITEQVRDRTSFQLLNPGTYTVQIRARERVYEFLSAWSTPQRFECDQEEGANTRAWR
test.description: phage ELISA, captured CD123-Fc
Give the value in ratio A450 target/IgG1-Fc but do not write ratio A450 target/IgG1-Fc after it.

Answered cases to consult:
SEQ ID NO: 395 (designed binder, D domain, on phage) MGSWVEFEERLWAIDERLGALGGSEAELAAFEKEIAAFESELQAYKGKGNPEVEWLRDWAADIRWWLQAYRHN ... 4.1
SEQ ID NO: 584 (designed binder, D domain, on phage) MGSWHEFEERLMAIEDRLWALGGSEAELAEFEQWIALFEYDLQEYKGKGNPEVEALGMEAFAINNELSAYRHN ... 5.8

# evaluate next
Read the entry SEQ ID NO: 411 (designed binder, D domain, on phage) MGSWNEFVIRLDAIYERLLALGGSEAELAAFEKEIAAFESELQAYKGKGNPEVEYLRMAAANIRMELQAYRHN and write its reported ELISA_avg.
16.6

Values from patent US20230125550A1
